I'd be grateful if you could share measured ITS1 normalized counts, Transcripts per Million (TPM) for these entries.
- System: M. tuberculosis Erdman strain
- Assay explanation: highly lethal in vitro drug exposure of log-phase M. tuberculosis; killing and pre-rRNA/rRNA by RNAseq and ddPCR
- Format: cell-based
- Measurement conditions: RNAseq, lethal in vitro exposure, Day 2
The reply should be a number in TPM, with the unit left off.

Entry CO[C@H]1/C=C/O[C@@]2(C)Oc3c(C)c(O)c4c(O)c(c(/C=N/N5CCN(C)CC5)c(O)c4c3C2=O)NC(=O)/C(C)=C\C=C\[C@H](C)[C@H](O)[C@@H](C)[C@@H](O)[C@@H](C)[C@H](OC(C)=O)[C@@H]1C [Rifampin, rifampin] , ITS1 normalized counts, Transcripts per Million (TPM) reported as 72

Entry COc1nc2ccc(Br)cc2cc1[C@@H](c1ccccc1)[C@@](O)(CCN(C)C)c1cccc2ccccc12 [Bedaquiline, bedaquiline] , ITS1 normalized counts, Transcripts per Million (TPM) reported as 551

---

I'd be grateful if you could share measured M. tuberculosis killed for these entries.
- Tested on: M. tuberculosis Erdman strain
- Assay explanation: highly lethal in vitro drug exposure of log-phase M. tuberculosis; killing and pre-rRNA/rRNA by RNAseq and ddPCR
- Format: cell-based
- Measurement conditions: 48 h of exposure, lethal dose, log phase culture

Entry CO[C@H]1/C=C/O[C@@]2(C)Oc3c(C)c(O)c4c(O)c(c(/C=N/N5CCN(C)CC5)c(O)c4c3C2=O)NC(=O)/C(C)=C\C=C\[C@H](C)[C@H](O)[C@@H](C)[C@@H](O)[C@@H](C)[C@H](OC(C)=O)[C@@H]1C [Rifampin, rifampin] , M. tuberculosis killed reported as 99.99%

Entry NNC(=O)c1ccncc1 [Isoniazid, isoniazid] , M. tuberculosis killed reported as 99.99%

Entry [H]/N=C(/N)N[C@H]1[C@H](O)[C@@H](O)[C@H](O[C@@H]2O[C@@H](C)[C@](O)(C=O)[C@H]2O[C@@H]2O[C@@H](CO)[C@H](O)[C@@H](O)[C@@H]2NC)[C@@H](N/C(N)=N\[H])[C@@H]1O [Streptomycin, streptomycin] , M. tuberculosis killed reported as 99.99%

Entry COc1nc2ccc(Br)cc2cc1[C@@H](c1ccccc1)[C@@](O)(CCN(C)C)c1cccc2ccccc12 [Bedaquiline, bedaquiline] , M. tuberculosis killed reported as ~99.9%

This collection of values is drawn from patent US11572588B2.
